- tested-system: T1, SARS-CoV-2 RBD-mFc (SARS-CoV-2, UniProt P0DTC2 319-541)
- T1 construct: range 319-541
- run-description: Octet QKe BLI, 1:1 global fit
endpoint-name: koff (s⁻¹)
Answers are plain numbers, in s⁻¹.

Suppose we examine the binder SA4055 (antibody, V domains shown) VH: EVQLVQSGGGLVQPGGSLRLSCAASVITVSSNYMSWVRQAPGKGLEWVSVIYPGGSTYYADSVKGRFTISRDKSKNTLYLQMNSLRAEDTAVYYCARDLDIVGGMDVWGQGTTVTVSS VL: QSALTQPASVSGSPGQSITISCTGTSSDVGDYNLVSWYQQHPGKAPKVMIYDVSHRPSGVSNRFSGSKSGNTASLTISGLQAEDEADYYCSSYTSSTTVVFGGGTKLTVL ; what koff value has been reported?
2.36e-05

Each recorded value in this set is attributed to patent KR20220054080A.
